- target: human SIRT1 (Homo sapiens (Human))
- Sequence (Q96EB6 whole entry): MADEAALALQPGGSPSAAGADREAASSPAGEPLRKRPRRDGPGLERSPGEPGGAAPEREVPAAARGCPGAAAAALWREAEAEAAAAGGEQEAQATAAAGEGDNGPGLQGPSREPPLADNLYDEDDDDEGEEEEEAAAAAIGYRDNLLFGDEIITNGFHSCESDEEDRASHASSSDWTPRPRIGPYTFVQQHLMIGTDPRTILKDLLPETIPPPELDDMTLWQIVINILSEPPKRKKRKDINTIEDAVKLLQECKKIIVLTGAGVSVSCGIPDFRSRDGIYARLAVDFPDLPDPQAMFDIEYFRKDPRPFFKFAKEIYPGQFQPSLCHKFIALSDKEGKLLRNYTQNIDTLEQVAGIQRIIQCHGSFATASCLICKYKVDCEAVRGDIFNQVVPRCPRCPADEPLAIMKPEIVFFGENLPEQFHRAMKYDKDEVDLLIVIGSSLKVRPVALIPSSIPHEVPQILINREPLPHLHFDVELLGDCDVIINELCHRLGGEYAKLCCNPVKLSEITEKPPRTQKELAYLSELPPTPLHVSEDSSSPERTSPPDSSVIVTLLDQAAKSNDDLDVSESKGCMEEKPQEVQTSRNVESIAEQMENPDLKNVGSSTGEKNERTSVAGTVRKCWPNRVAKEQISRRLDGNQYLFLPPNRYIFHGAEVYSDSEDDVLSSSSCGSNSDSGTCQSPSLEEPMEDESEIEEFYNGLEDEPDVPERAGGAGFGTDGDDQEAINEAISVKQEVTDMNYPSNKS
- method notes: SIRT1 in vitro deacetylation assay (Fluor-de-Lys, acetylated AMC-labeled p53 peptide)
- Type: biochemical
- conditions used: concentration required to increase the enzyme activity by 50%; 50 μM substrate peptide, 500 μM NAD+, 30° C., 2 h; read-out: EC1.5 (SIRT1 activators)
- Method: The inhibitory activity is measured as the concentration of compound required to reduce the enzyme activity by 50% (IC50). Activation in this assay is measured both as the concentration of compound required to increase the enzyme activity by 50% (EC1.5) as well as by the percentage of maximum activation achieved (Max %) (see, FIG. 1). The reactions were carried out in a 96-well microplate for fluorometry in a 50 μl reaction volume. […]
recorded metric: EC1.5 (concentration raising enzyme activity by 50%) (nM)
Provide only the numeric value, understood in nM.

Example entries begin here.
- molecule: "Oc1ccc(-c2cc3c(O)cc(O)cc3o2)cc1"
  value: 3.55
- molecule: "Oc1cc(O)cc(-c2cc3c(O)cc(O)cc3o2)c1"
  value: 1.32
- molecule: "Oc1cc(O)cc(-c2cc3ccc(O)cc3o2)c1 [reference compound]"
  value: 11.5

Lab note: next molecule to report on.
In: So what does the record say about EC1.5 (concentration raising enzyme activity by 50%) for "Oc1cc(O)c2cc(-c3ccc(F)cc3)oc2c1" ?
Out: 13.5
